Exercise: state measured Bliss excess for each of the compounds provided.
System: MS751 (Cervical Carcinoma)
Assay: Bliss excess, mean over the matrix (fraction); higher = more synergy

{"compound": "CC1(C)CCC(CN2CCN(c3ccc(C(=O)NS(=O)(=O)c4ccc(NCC5CCOCC5)c([N+](=O)[O-])c4)c(Oc4cnc5[nH]ccc5c4)c3)CC2)=C(c2ccc(Cl)cc2)C1 [Venetoclax] + CN(C)CCCOc1ccc(-c2ccc3ncc4c(c3c2)n(C2CCOCC2)c(=O)n4C)cn1 [AZD0156] (first compound max 1 µM, 7x7, partner max 1 µM)", "subject_of_test": "MS751 (Cervical Carcinoma)", "Bliss excess": 0.0165}
{"compound": "Cc1c2c(nn1C)CSCc1cc(n(C)n1)CSc1cc(c3ccccc3c1)OCCCc1c(C(=O)O)n(C)c3c-2c(Cl)ccc13 [AZD5991] + C[C@@H]1COCCN1C2=NC(=NC(=C2)C3(CC3)[S@](=N)(=O)C)C4=C5C=CNC5=NC=C4 [AZD6738] (first compound max 1 µM, 7x7, partner max 10 µM)", "subject_of_test": "MS751 (Cervical Carcinoma)", "Bliss excess": 0.0565}
{"compound": "CC1(C)CCC(CN2CCN(c3ccc(C(=O)NS(=O)(=O)c4ccc(NCC5CCOCC5)c([N+](=O)[O-])c4)c(Oc4cnc5[nH]ccc5c4)c3)CC2)=C(c2ccc(Cl)cc2)C1 [Venetoclax] + C1CN(CCC1(C(=O)N[C@@H](CCO)C2=CC=C(C=C2)Cl)N)C3=NC=NC4=C3C=CN4 [Capivasertib] (first compound max 1 µM, 7x7, partner max 3 µM)", "subject_of_test": "MS751 (Cervical Carcinoma)", "Bliss excess": -0.0161}
{"compound": "Cc1c2c(nn1C)CSCc1cc(n(C)n1)CSc1cc(c3ccccc3c1)OCCCc1c(C(=O)O)n(C)c3c-2c(Cl)ccc13 [AZD5991] + CCN(CCO)CCCOc1ccc2c(Nc3cc(CC(=O)Nc4cccc(F)c4)[nH]n3)ncnc2c1 [AZD2811] (first compound max 1 µM, 7x7, partner max 1 µM)", "subject_of_test": "MS751 (Cervical Carcinoma)", "Bliss excess": 0.0367}

I would be grateful if you could provide Bliss excess for each of the following entries.
1. CC1(C)CCC(CN2CCN(c3ccc(C(=O)NS(=O)(=O)c4ccc(NCC5CCOCC5)c([N+](=O)[O-])c4)c(Oc4cnc5[nH]ccc5c4)c3)CC2)=C(c2ccc(Cl)cc2)C1 [Venetoclax] + C[C@@H](Nc1cc(F)cc(F)c1)c1cc(C(=O)N(C)C)cc2c(=O)cc(N3CCOCC3)oc12 [AZD8186] (first compound max 1 µM, 7x7, partner max 3 µM)
2. COc1cccc(OCCCN)c1-c1cc(Nc2cnc(C#N)cn2)n[nH]1 [Prexasertib] + O=C(c1cc(Cc2n[nH]c(=O)c3ccccc23)ccc1F)N1CCN(C(=O)C2CC2)CC1 [Olaparib] (first compound max 1 µM, 7x7, partner max 10 µM)

0.006
0.034

----------
System: BFTC-905 (Bladder Carcinoma)
Experiment: combination Emax (second highest fraction inhibited in the dose matrix, 72 h); higher = more inhibition; extreme values may be limits of the assay
Would you kindly list combination Emax for each of these compounds?
Answers are plain numbers.

The cases that follow already have their combination Emax on record.
{"compound": "CN(CCO)CC[C@H](CSc1ccccc1)Nc1ccc(S(=O)(=O)NC(=O)c2ccc(N3CCC([C@@H](O)c4ccccc4-c4ccc(Cl)cc4)CC3)cc2)cc1S(=O)(=O)C(F)(F)F [AZD4320] + Nc1ccn([C@@H]2O[C@H](CO)[C@@H](O)C2(F)F)c(=O)n1 [Gemcitabine] (first compound max 1 µM, 7x7, partner max 0.3 µM)", "subject_of_test": "BFTC-905 (Bladder Carcinoma)", "observed_result": 0.9}
{"compound": "CC1(C)CCC(CN2CCN(c3ccc(C(=O)NS(=O)(=O)c4ccc(NCC5CCOCC5)c([N+](=O)[O-])c4)c(Oc4cnc5[nH]ccc5c4)c3)CC2)=C(c2ccc(Cl)cc2)C1 [Venetoclax] + C=CCn1c(=O)c2cnc(Nc3ccc(N4CCN(C)CC4)cc3)nc2n1-c1cccc(C(C)(C)O)n1 [AZD1775] (first compound max 1 µM, partner max 1 µM)", "subject_of_test": "BFTC-905 (Bladder Carcinoma)", "observed_result": 0.799}

# CC1(C)CCC(CN2CCN(c3ccc(C(=O)NS(=O)(=O)c4ccc(NCC5CCOCC5)c([N+](=O)[O-])c4)c(Oc4cnc5[nH]ccc5c4)c3)CC2)=C(c2ccc(Cl)cc2)C1 [Venetoclax] + Cc1cc2ncnn2cc1Nc1ncc2c(n1)n(C1CCOCC1)c(=O)n2C [AZD7648] (first compound max 1 µM, 7x7, partner max 10 µM) with BFTC-905 (Bladder Carcinoma): combination Emax is 0.207

----------
Tested on: GR-ST (B-Lymphoblastic Leukemia)
Assay: combination Emax (second highest fraction inhibited in the dose matrix, 72 h); higher = more inhibition; extreme values may be limits of the assay
What combination Emax was measured for each of the following?
Answers are plain numbers.

{"molecule": "CC(=O)Nc1cccc(-n2c(=O)n(C3CC3)c(=O)c3c(Nc4ccc(I)cc4F)n(C)c(=O)c(C)c32)c1 [Trametinib] + Cc1nc(-c2cn3c(n2)-c2ccc(-c4cnn(C(C)(C)C(N)=O)c4)cc2OCC3)n(C(C)C)n1 [Taselisib] (first compound max 1 µM, 7x7, partner max 10 µM)", "combination Emax": 0.633}

Value of combination Emax reported for the molecule Cc1c2c(nn1C)CSCc1cc(n(C)n1)CSc1cc(c3ccccc3c1)OCCCc1c(C(=O)O)n(C)c3c-2c(Cl)ccc13 [AZD5991] + C[C@@H](Nc1cc(F)cc(F)c1)c1cc(C(=O)N(C)C)cc2c(=O)cc(N3CCOCC3)oc12 [AZD8186] (first compound max 1 µM, 7x7, partner max 3 µM) is 0.257

----------
Tested on: TE-6 (Esophageal Squamous Cell Carcinoma)
Test: combination Emax (second highest fraction inhibited in the dose matrix, 72 h); higher = more inhibition; extreme values may be limits of the assay
measured_metric: combination Emax

{"molecule": "CS(=O)(=O)CCNCc1ccc(-c2ccc3ncnc(Nc4ccc(OCc5cccc(F)c5)c(Cl)c4)c3c2)o1 [Lapatinib] + C[C@@H](Oc1cc(-c2cnn(C3CCNCC3)c2)cnc1N)c1c(Cl)ccc(F)c1Cl [Crizotinib] (first compound max 10 µM, 7x7, partner max 10 µM)", "combination Emax": 0.835}

Below are 2 molecules. Give each one its combination Emax.
1. CN(CCO)CC[C@H](CSc1ccccc1)Nc1ccc(S(=O)(=O)NC(=O)c2ccc(N3CCC([C@@H](O)c4ccccc4-c4ccc(Cl)cc4)CC3)cc2)cc1S(=O)(=O)C(F)(F)F [AZD4320] + C=CCn1c(=O)c2cnc(Nc3ccc(N4CCN(C)CC4)cc3)nc2n1-c1cccc(C(C)(C)O)n1 [AZD1775] (first compound max 1 µM, partner max 1 µM)
2. C[C@@H](c1ccc2nccn2c1)n1nnc2ncc(-c3cnn(C)c3)nc21 [Savolitinib] + Cc1c2c(nn1C)CSCc1cc(n(C)n1)CSc1cc(c3ccccc3c1)OCCCc1c(C(=O)O)n(C)c3c-2c(Cl)ccc13 [AZD5991] (first compound max 1 µM, 7x7, partner max 1 µM)

[0.556, 0.308]

----------
Please respond with reported Bliss excess for every item in the list.
System: KCL-22 (Chronic Myelogenous Leukemia)
Assay: Bliss excess, mean over the matrix (fraction); higher = more synergy
Answers are plain numbers.

A selection of reference data follows.
{"molecule": "COc1nnc2ccc(N3CCC(c4ccc(OCCN5CCN(C)C(=O)[C@H]5C)cc4)CC3)nn12 [AZD5153] + C=CCn1c(=O)c2cnc(Nc3ccc(N4CCN(C)CC4)cc3)nc2n1-c1cccc(C(C)(C)O)n1 [AZD1775] (first compound max 1 µM, partner max 1 µM)", "Bliss excess": -0.0578}
{"molecule": "COc1cc2c(cc1OCCCCCOc1cc3c(cc1OC)C(=O)N1C=C(C)C[C@H]1C=N3)N=C[C@@H]1CC(C)=CN1C2=O [SG3199] + O=C(c1cc(Cc2n[nH]c(=O)c3ccccc23)ccc1F)N1CCN(C(=O)C2CC2)CC1 [Olaparib] (first compound max 0.001 µM, 7x7, partner max 10 µM)", "Bliss excess": -0.0049}

# context switch: different molecule, same Bliss excess
For CC(=O)c1c(C)c2cnc(Nc3ccc(N4CCNCC4)cn3)nc2n(C2CCCC2)c1=O [Palbociclib] + Cc1c2c(nn1C)CSCc1cc(n(C)n1)CSc1cc(c3ccccc3c1)OCCCc1c(C(=O)O)n(C)c3c-2c(Cl)ccc13 [AZD5991] (first compound max 10 µM, 7x7, partner max 1 µM) the molecule record lists Bliss excess as 0.0403

----------
Test system: NCI-H1792 (Lung Adenocarcinoma)
Test: combination Emax (second highest fraction inhibited in the dose matrix, 72 h); higher = more inhibition; extreme values may be limits of the assay
Label Condition met for high-side combination Emax (at or above 0.5) and Condition not met for low-side combination Emax (below it).

// known answers, use as guide
{"compound": "CS(=O)(=O)CCNCc1ccc(-c2ccc3ncnc(Nc4ccc(OCc5cccc(F)c5)c(Cl)c4)c3c2)o1 [Lapatinib] + C[C@@H](Oc1cc(-c2cnn(C3CCNCC3)c2)cnc1N)c1c(Cl)ccc(F)c1Cl [Crizotinib] (first compound max 10 µM, 7x7, partner max 10 µM)", "subject_of_test": "NCI-H1792 (Lung Adenocarcinoma)", "class_name": "Condition met"}
{"compound": "CC1(C)CCC(CN2CCN(c3ccc(C(=O)NS(=O)(=O)c4ccc(NCC5CCOCC5)c([N+](=O)[O-])c4)c(Oc4cnc5[nH]ccc5c4)c3)CC2)=C(c2ccc(Cl)cc2)C1 [Venetoclax] + CS(=O)(=O)CCNCc1ccc(-c2ccc3ncnc(Nc4ccc(OCc5cccc(F)c5)c(Cl)c4)c3c2)o1 [Lapatinib] (first compound max 1 µM, 7x7, partner max 10 µM)", "subject_of_test": "NCI-H1792 (Lung Adenocarcinoma)", "class_name": "Condition not met"}
{"compound": "CC1(C)CCC(CN2CCN(c3ccc(C(=O)NS(=O)(=O)c4ccc(NCC5CCOCC5)c([N+](=O)[O-])c4)c(Oc4cnc5[nH]ccc5c4)c3)CC2)=C(c2ccc(Cl)cc2)C1 [Venetoclax] + C[C@@H](Nc1cc(F)cc(F)c1)c1cc(C(=O)N(C)C)cc2c(=O)cc(N3CCOCC3)oc12 [AZD8186] (first compound max 1 µM, 7x7, partner max 3 µM)", "subject_of_test": "NCI-H1792 (Lung Adenocarcinoma)", "class_name": "Condition not met"}
{"compound": "O=C(c1cc(Cc2n[nH]c(=O)c3ccccc23)ccc1F)N1CCN(C(=O)C2CC2)CC1 [Olaparib] + Cc1c2c(nn1C)CSCc1cc(n(C)n1)CSc1cc(c3ccccc3c1)OCCCc1c(C(=O)O)n(C)c3c-2c(Cl)ccc13 [AZD5991] (first compound max 10 µM, 7x7, partner max 1 µM)", "subject_of_test": "NCI-H1792 (Lung Adenocarcinoma)", "class_name": "Condition not met"}
{"compound": "CN(CCO)CC[C@H](CSc1ccccc1)Nc1ccc(S(=O)(=O)NC(=O)c2ccc(N3CCC([C@@H](O)c4ccccc4-c4ccc(Cl)cc4)CC3)cc2)cc1S(=O)(=O)C(F)(F)F [AZD4320] + CS(=O)(=O)CCNCc1ccc(-c2ccc3ncnc(Nc4ccc(OCc5cccc(F)c5)c(Cl)c4)c3c2)o1 [Lapatinib] (first compound max 1 µM, 7x7, partner max 10 µM)", "subject_of_test": "NCI-H1792 (Lung Adenocarcinoma)", "class_name": "Condition met"}
{"compound": "COc1cccc2c1C(=O)c1c(O)c3c(c(O)c1C2=O)C[C@@](O)(C(=O)CO)C[C@@H]3O[C@H]1C[C@H](N)[C@H](O)[C@H](C)O1 [Doxorubicin] + Cc1cc2ncnn2cc1Nc1ncc2c(n1)n(C1CCOCC1)c(=O)n2C [AZD7648] (first compound max 1 µM, 7x7, partner max 10 µM)", "subject_of_test": "NCI-H1792 (Lung Adenocarcinoma)", "class_name": "Condition met"}
{"compound": "CC1(C)CCC(CN2CCN(c3ccc(C(=O)NS(=O)(=O)c4ccc(NCC5CCOCC5)c([N+](=O)[O-])c4)c(Oc4cnc5[nH]ccc5c4)c3)CC2)=C(c2ccc(Cl)cc2)C1 [Venetoclax] + C1CN(CCC1(C(=O)N[C@@H](CCO)C2=CC=C(C=C2)Cl)N)C3=NC=NC4=C3C=CN4 [Capivasertib] (first compound max 1 µM, 7x7, partner max 3 µM)", "subject_of_test": "NCI-H1792 (Lung Adenocarcinoma)", "class_name": "Condition not met"}
{"compound": "COc1cc2ncnc(Nc3ccc(F)c(Cl)c3)c2cc1OCCCN1CCOCC1 [Gefitinib] + CC(C)n1c(=O)n(C)c2cnc3cc(F)c(-c4ccc(OCCCN5CCCCC5)nc4)cc3c21 [AZD1390] (first compound max 10 µM, 7x7, partner max 0.3 µM)", "subject_of_test": "NCI-H1792 (Lung Adenocarcinoma)", "class_name": "Condition not met"}
{"compound": "C=CCn1c(=O)c2cnc(Nc3ccc(N4CCN(C)CC4)cc3)nc2n1-c1cccc(C(C)(C)O)n1 [AZD1775] + CCc1c2c(nc3ccc(O)cc13)-c1cc3c(c(=O)n1C2)COC(=O)[C@]3(O)CC [SN-38] (first compound max 1 µM, partner max 0.3 µM)", "subject_of_test": "NCI-H1792 (Lung Adenocarcinoma)", "class_name": "Condition met"}
{"compound": "N#Cc1cnc(Nc2cc(NC[C@H]3CNCCO3)c(C(F)(F)F)cn2)cn1 [SRA737] + Nc1ccn([C@@H]2O[C@H](CO)[C@@H](O)C2(F)F)c(=O)n1 [Gemcitabine] (first compound max 10 µM, 7x7, partner max 0.3 µM)", "subject_of_test": "NCI-H1792 (Lung Adenocarcinoma)", "class_name": "Condition met"}

hey, is combination Emax for this one >= 0.5? CC1(C)CCC(CN2CCN(c3ccc(C(=O)NS(=O)(=O)c4ccc(NCC5CCOCC5)c([N+](=O)[O-])c4)c(Oc4cnc5[nH]ccc5c4)c3)CC2)=C(c2ccc(Cl)cc2)C1 [Venetoclax] + CCN(CCO)CCCOc1ccc2c(Nc3cc(CC(=O)Nc4cccc(F)c4)[nH]n3)ncnc2c1 [AZD2811] (first compound max 1 µM, 7x7, partner max 1 µM)
Condition not met

In plain terms: is recorded combination Emax at least 0.5 for Cc1c2c(nn1C)CSCc1cc(n(C)n1)CSc1cc(c3ccccc3c1)OCCCc1c(C(=O)O)n(C)c3c-2c(Cl)ccc13 [AZD5991] + C[C@@H]1COCCN1C2=NC(=NC(=C2)C3(CC3)[S@](=N)(=O)C)C4=C5C=CNC5=NC=C4 [AZD6738] (first compound max 1 µM, 7x7, partner max 10 µM) ?
Condition met
